meta.source: ChEMBL document CHEMBL1201862

test system: OVCAR-8; assay: NCI tumour cell line growth inhibition, 48 h
Calls of active or inactive are those of the source. Rule as the data show it: active = GI50 up to about 1.1 µM and inactive = higher.
property label: GI50

// worked examples, GI50 included
[
  {
    "compound": "CCN(CC)CCCNc1ccc([N+](=O)[O-])c2nc3ccc(OC)cc3c(N)c12",
    "property label": "GI50",
    "test result": "1.95 µM (inactive)"
  },
  {
    "compound": "C=C(C)C(=O)O[C@H]1C[C@@]23O[C@@H]2CCC(=C[C@H]2OC(=O)C(=C)[C@H]12)COC3O (stereo not given in full)",
    "property label": "GI50",
    "test result": "39.6 µM (inactive)"
  },
  {
    "compound": "CSc1nc(C)c(CCOC(C)=O)c(N=P(c2ccccc2)(c2ccccc2)c2ccccc2)n1",
    "property label": "GI50",
    "test result": "4.88 µM (inactive)"
  }
]

GI50 in this record for `COc1cc2c(/C=C3/C(=O)Nc4cc(C)c(O)cc43)c(Cl)[nH]c2cc1C` : 3.69 µM (inactive)

Per the records, this compound ( O=C(O)c1cc2ccccc2oc1=O [COUMARIN-3-CARBOXYLIC ACID] ) has GI50 equal to > 100 µM (inactive)

For record c1ccc(C2CC(N3CCOCC3)=Nc3ccccc3N2)cc1 (stereo not given) the listed GI50 is > 100 µM (inactive)

Measured GI50, `CC(=O)C(I(OS(=O)(=O)c1ccc(C)cc1)c1ccccc1)=P(c1ccccc1)(c1ccccc1)c1ccccc1` : 32.6 µM (inactive)

// GI50 value for `CC(=O)Oc1ccc2c(c1)C(=O)c1nc(C)c(C)nc1C2=O` : 45.1 µM (inactive)

Lab note: `CCOC(=O)CNc1c(OCc2ccccc2)c(=O)c1=O` gave GI50 of > 100 µM (inactive)

Value of measured GI50 for the entry COc1ccc(C(C)c2cc3c(cc2O)OCO3)cc1 (stereo not given) : 16.7 µM (inactive)

====

system: DU-145; test: NCI tumour cell line growth inhibition, 48 h
Calls of active or inactive are those of the source. Cut-off read from the data, not from the text of the source: active = GI50 up to about 1.1 µM and inactive = higher.
# output must be one of true (active), false (inactive)

[
  {
    "compound": "Cc1sc(Nc2ccccc2[N+](=O)[O-])c(C#N)c1C",
    "class name": "false"
  },
  {
    "compound": "O=C1OC(c2ccc(Cl)cc2)=N/C1=C\\c1ccccc1",
    "class name": "false"
  }
]

## Input Query: recorded result category for `COc1ccc(C(=O)c2[nH]c(Nc3cc(C)ccn3)c(C(=S)Nc3ccccc3)c2N)cc1` in this test
## Output false

## Input Which outcome was entered for the compound Cc1cc2nnn(C3CCCCO3)c2cc1C (stereo not given) in this test?
## Output false

## Input Tell me the assay call for CC1C2C=CC1C(c1c3ccc(=O)c(O)c-3oc3c(O)c(O)ccc13)C2C(=O)O (stereo not given) please.
## Output false

## Input For this compound, state the assay outcome: `CN(O)C(=O)CCCC(=O)NCC(C)(C)CNC(=O)CCCC(=O)N(C)O`
## Output false

## Input Entry `COc1ccccc1-n1c(=O)n(C)c(=O)n1C(C)(C)C` : call = ?
## Output false

## Input Identify the outcome logged in this assay for the compound shown: `COC(=O)/C=C1/OC(c2ccc(Br)cc2)=C(Br)C1=O`
## Output false

## Input Kindly provide the recorded test outcome for the following compound: `Cc1cc2c(cc1C)[n+]([O-])c(N1CCN(c3ccc([N+](=O)[O-])cc3)CC1)c(C#N)[n+]2[O-]`
## Output false

## Input In this assay, the call recorded for CCCCc1ccc(Nc2nc(Cl)c3ccn(C4CC(Oc5ccc(C)cc5)C(COc5ccc(C)cc5)O4)c3n2)cc1 (stereo not given) was what?
## Output false
